assayed.target: NAD-dependent protein deacetylase sirtuin-1 (Homo sapiens) (UniProt Q96EB6)
Sequence (whole entry): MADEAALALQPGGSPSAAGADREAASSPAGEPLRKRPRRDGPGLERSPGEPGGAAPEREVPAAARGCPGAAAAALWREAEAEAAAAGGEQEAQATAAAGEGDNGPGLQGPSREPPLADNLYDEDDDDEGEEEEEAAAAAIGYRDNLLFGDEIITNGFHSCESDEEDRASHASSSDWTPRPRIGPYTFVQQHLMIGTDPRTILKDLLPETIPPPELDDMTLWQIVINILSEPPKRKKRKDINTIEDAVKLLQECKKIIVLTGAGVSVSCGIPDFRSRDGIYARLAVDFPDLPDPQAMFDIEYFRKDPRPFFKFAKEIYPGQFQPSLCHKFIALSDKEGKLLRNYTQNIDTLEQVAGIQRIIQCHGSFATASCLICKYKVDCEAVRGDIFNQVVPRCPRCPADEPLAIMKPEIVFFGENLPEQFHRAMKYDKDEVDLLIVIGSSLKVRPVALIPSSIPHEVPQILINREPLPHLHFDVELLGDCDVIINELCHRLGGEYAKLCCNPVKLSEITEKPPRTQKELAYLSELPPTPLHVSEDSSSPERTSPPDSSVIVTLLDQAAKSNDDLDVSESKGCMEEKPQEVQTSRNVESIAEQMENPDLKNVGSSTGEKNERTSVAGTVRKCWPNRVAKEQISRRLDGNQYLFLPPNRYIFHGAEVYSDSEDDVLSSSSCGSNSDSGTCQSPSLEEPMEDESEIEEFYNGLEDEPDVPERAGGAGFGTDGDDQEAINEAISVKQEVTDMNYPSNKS
assay.text: Inhibition of full length human SIRT1 expressed in Escherichia coli BL21 (DE3) cells at 100 uM using fluorogenic 7-amino-4-methylcoumarin (AMC)-labeled peptide by fluorescence assay
Each entry below lists one item and its recorded inhibition value.

Consider the reported inhibition for these compounds:
Entry O=C(Nc1ccc(S(=O)(=O)O)c2ccccc12)c1ccccc1 , inhibition reported as < 10%

Entry Cc1ccc(C(=O)Nc2cccc3cccc(S(=O)(=O)O)c23)cc1 , inhibition reported as < 10%

***
Entry O=C(Nc1cccc2cccc(S(=O)(=O)O)c12)c1cccc([N+](=O)[O-])c1 , inhibition reported as < 10%

Entry NC(=O)c1ccc(Sc2cccc3ccccc23)cc1 , inhibition reported as < 10%
